Entry source: PubChem BioAssay AID1159580

Test: chemical genetic growth profiling, strain panel (AID 1159580);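 also: tested at 20 µM; growth read once vehicle control cultures reached saturation at 30 °C; 1 = growth at the plate median or of vehicle wells; lower values mean less growth of the strain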
Settings: S. cerevisiae deletion strains, growth OD, locus YLL026W, active compounds read low
In all, about 5,500 compounds went through this assay and about 2,000 (36%) were called active. Not shown: some 18% with an inconclusive outcome. The list shows a part of the results.
List of normalized growth values.
// return just the number, without any unit appended

{"Compound": "N[C@H](Cc1cc(I)c(Oc2ccc(O)c(I)c2)c(I)c1)C(=O)O", "normalized growth": 1}
{"Compound": "C=C1C2CC[C@@]3(C)[C@H](c4ccoc4)OC(=O)C[C@]13O[C@H]1CC(O)C(C)(C)C(CC(=O)OC)[C@@]21C (stereo partly drawn)", "normalized growth": 0.974}

normalized growth for C[C@]12C=CC(=O)C=C1CCC1C3C[C@@H](O)[C@](O)(C(=O)CO)[C@@]3(C)C[C@H](O)[C@@]12F (stereo partly drawn) ?
0.964

What about CC(=O)O[C@H]1C[C@@H](OC(C)=O)C(C)(C)C2CC(=O)[C@]3(C)C(CC[C@@]4(C)[C@H](c5ccoc5)OC(=O)[C@H]5O[C@]543)[C@]21C (stereo partly drawn) ?
0.996

Consider next the compound CO[C@]12C[C@@H](COC(=O)c3cncc(Br)c3)CN(C)[C@@H]1Cc1cn(C)c3cccc2c13 in the same way.
0.989

How about CCOC(=O)[C@H](CCc1ccccc1)N[C@@H](C)C(=O)N1Cc2ccccc2C[C@H]1C(=O)O ?
1.01

Quick one: CC(CN(C)C)CN1c2ccccc2CCc2ccccc21 (stereo not drawn)
0.979

Then what about the compound CCN(CC)C(C)CN1c2ccccc2Sc2ccccc21 (stereo not drawn) ?
0.962

// query: C=C1[C@H]2CC[C@@]3(C)[C@H](c4ccoc4)OC(=O)C[C@]13O[C@H]1C[C@H](O)C(C)(C)[C@H](CC(=O)OC)[C@]12C
1.01

Item: C=C1C2CC[C@@]3(C)[C@H](c4ccoc4)OC(=O)C[C@]13O[C@H]1CC(=O)C(C)(C)C(CC(=O)OC)[C@@]21C (stereo partly drawn)
0.981

# repeat for CN(CCC(N)CC(=O)N[C@H]1C=CC(n2ccc(N)nc2=O)O[C@@H]1C(=O)O)C(=N)N (stereo partly drawn)
0.934

What do we get for C=C1C2CCC3(C)C(c4ccoc4)OC(=O)CC13OC1CC(OC(C)=O)C(C)(C)C(CC(=O)OC)C12C (stereo not drawn) ?
1

Another compound to look at: C=C1C2=CC(=O)O[C@@H](c3ccoc3)[C@]2(C)CCC1[C@@]1(C)C=CC(=O)C(C)(C)[C@@H]1CC(=O)OC (stereo partly drawn)
0.989

Then CC(CN1c2ccccc2Sc2ccccc21)N(C)C (stereo not drawn) ?
0.943

// repeat for CC(=O)N=c1sc(S(N)(=O)=O)nn1C and report
1.01

Try this compound too: CC12CC3CC(C)(C1)CC(N)(C3)C2
0.995

Also, C[C@H](CCC(=O)O)[C@H]1CCC2C3C(CC[C@@]21C)[C@@]1(C)CC[C@@H](O)C[C@H]1C[C@H]3O (stereo partly drawn) please.
1.02

And the next one, O=C(Nc1ccccc1)Nc1ccccc1 ?
0.958

====

Test: chemical genetic growth profiling, strain panel (AID 1159580)
Conditions: S. cerevisiae deletion strains, growth OD, locus YJL154C, strain vps35, active compounds read low
Hit rate of the full screen: of about 5,500 compounds, about 2,000 (36%) were called active. Another 18% or so got no clear call; they are omitted. The list shows a part of the results.
Recorded Endpoint: normalized growth
Please give only the number in your answer, with no unit.

{"Molecule": "C=C1C2=CC(=O)O[C@@H](c3ccoc3)[C@]2(C)CCC1[C@@]1(C)C=CC(=O)C(C)(C)[C@@H]1CC(=O)OC (some centres undefined)", "Recorded Endpoint": "normalized growth", "Readout Value": 0.995}
{"Molecule": "C=C1[C@H]2CC[C@@]3(C)[C@H](c4ccoc4)OC(=O)C[C@]13O[C@H]1C[C@H](O)C(C)(C)[C@H](CC(=O)OC)[C@]12C", "Recorded Endpoint": "normalized growth", "Readout Value": 1.02}
{"Molecule": "CCC(=O)Nc1ccc(Cl)c(Cl)c1", "Recorded Endpoint": "normalized growth", "Readout Value": 0.998}
{"Molecule": "C/C=C/C(=O)N(CC)c1ccccc1C", "Recorded Endpoint": "normalized growth", "Readout Value": 1.01}
{"Molecule": "CN(CCC(N)CC(=O)N[C@H]1C=CC(n2ccc(N)nc2=O)O[C@@H]1C(=O)O)C(=N)N (some centres undefined)", "Recorded Endpoint": "normalized growth", "Readout Value": 0.898}

Fill in the blank: the reported normalized growth of C[C@@H]1CC2C3CCC4=CC(=O)C=C[C@]4(C)[C@@]3(F)[C@@H](O)C[C@]2(C)[C@H]1C(=O)CO (some centres undefined) is ____.
0.995

Try the molecule CCCC(C(=O)OCCN(CC)CC)(c1ccccc1)c1ccccc1
1.01

Field entry: CCN(CC)CCOC(=O)C(c1ccccc1)c1ccccc1
0.959

How about this molecule: NC(N)=O
1.01

====

As shown below, each of these compounds has a reported normalized growth value.
Assay: chemical genetic growth profiling, strain panel (AID 1159580);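 also: tested at 20 µM; growth read once vehicle control cultures reached saturation at 30 °C; 1 = growth at the plate median or of vehicle wells; lower values mean less growth of the strain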
Settings: S. cerevisiae deletion strains, growth OD, locus YKL068W, active compounds read low
Among all 5,500 compounds or so, about 2,000 (36%) were called active. Not shown: some 18% with an inconclusive outcome. The list shows a part of the results.

{"Compound": "C[C@H](CCC(=O)O)[C@H]1CCC2C3C(CC[C@@]21C)[C@@]1(C)CC[C@@H](O)C[C@H]1C[C@H]3O (some centres undefined)", "normalized growth": "1.03 (inactive)"}

Quick one: normalized growth of COc1cc(OC)c2c3c1C(=O)c1c(OC)cc(C)c4c(OC)cc(c-3c14)C(C)(C)C2=O ?
0.992 (inactive)

Lookup CCC(=O)c1ccc2c(c1)N(CC(C)N(C)C)c1ccccc1S2 (centres undefined)
0.999 (inactive)

Please give the result for O=C(O)c1ccccc1C(=O)Nc1ccc(S(=O)(=O)Nc2nccs2)cc1 too.
0.987 (inactive)

====

Experiment: chemical genetic growth profiling, strain panel (AID 1159580);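 also: tested at 20 µM; growth read once vehicle control cultures reached saturation at 30 °C; 1 = growth at the plate median or of vehicle wells; lower values mean less growth of the strain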
Conditions: S. cerevisiae deletion strains, growth OD, locus YKL085W, strain MDH1 (second series), active compounds read low
About 2,000 (36%) of roughly 5,500 compounds were called active. Another 18% or so got no clear call; they are omitted. The list shows a part of the results. Where a SMILES comes first, the peptide text is derived from it.
Recorded Endpoint: normalized growth
In your answer, state the number alone without any accompanying words.

{"Molecule": "COc1c2ccccc2nc2occc12", "normalized growth": 0.984}
{"Molecule": "NC(N)=NCCCC(NC(=O)C(N)Cc1ccc(O)cc1)C(=O)O (stereo unspecified)", "normalized growth": 0.988}
{"Molecule": "CCCCSP(=O)(SCCCC)SCCCC", "normalized growth": 1.01}
{"Molecule": "NCCCCC(N)C(=O)NC(Cc1ccc(O)cc1)C(=O)NC(CCCCN)C(=O)O (stereo not drawn) (H-Lys-Tyr-Lys-OH; configuration not given here)", "normalized growth": 1.04}
{"Molecule": "CN(C)N=Nc1nc[nH]c1C(N)=O", "normalized growth": 0.999}
{"Molecule": "COc1ccc(C(=O)N2CCCC2=O)cc1", "normalized growth": 0.984}

Data request, read-out normalized growth, for CCCCC[C@H](CC(=O)NO)C(=O)N[C@H](C(=O)N1CCC[C@H]1CO)C(C)C
1.02

Try the molecule COc1ccc(C(=O)CC(=O)c2ccc(C(C)(C)C)cc2)cc1
0.989

====

Test: chemical genetic growth profiling, strain panel (AID 1159580);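 also: tested at 20 µM; growth read once vehicle control cultures reached saturation at 30 °C; 1 = growth at the plate median or of vehicle wells; lower values mean less growth of the strain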
Conditions: S. cerevisiae deletion strains, growth OD, locus YLR342W, strain FKS1, active compounds read low
The whole screen tested about 5,500 compounds, of which about 2,000 (36%) were called active. Roughly 18% stayed inconclusive and do not appear here. Some of the results follow.
Mark each entry true if its normalized growth sits below 1, and false for all others.

{"Compound": "CC(CCC(=O)O)[C@H]1CCC2C3CC[C@@H]4CCCC[C@]4(C)C3CC[C@@]21C (stereo partly drawn)", "Group Label": "false"}
{"Compound": "CN(C)CCOC(=O)C(c1ccccc1)C1(O)CCCC1 (stereo not drawn)", "Group Label": "true"}
{"Compound": "C=Cc1c(C)c2[n-]c1=Cc1[n-]c(c(CC)c1C)C=c1[n-]c3c(c1C)C(=O)C(C(=O)[O-])C=3c1[n-]c(c(C)c1CCC(=O)[O-])C=2.[Cu] (stereo not drawn)", "Group Label": "false"}
{"Compound": "CC(CCC(=O)O)[C@H]1CCC2C3CC[C@@H]4C[C@H](O)CC[C@]4(C)C3CC[C@@]21C (stereo partly drawn)", "Group Label": "true"}

Does the reported normalized growth of the following compound sit strictly below 1? COC(=O)CCCOc1ccc(Cl)cc1Cl
true
